- Tested on: U251 CNS
- test details: NCI tumour cell line growth inhibition, 48 h
TGI by entry:
experimental endpoint: TGI

compound	system under test	reading
COC1=C(Br)[C@H](O)[C@@]2(C=C1Br)CC(C(=O)NCCCOc1c(Br)cc(C(O)CNC(C)=O)cc1Br)=NO2 (some centres undefined)	U251 CNS	> 10 µM
CN(C)C(=O)/C=C/c1c[nH]c(=O)[nH]c1=O	U251 CNS	> 500 µM
O=C1c2cc3c(cc2-c2c1c1cc(Cl)c(Cl)cc1c(=O)n2C[C@H](O)CO)OCO3	U251 CNS	0.0368 µM
CC(C)(C)[Si](C)(C)Oc1ccc(C2CNC(=O)C23CCC(=O)N3Cc2ccccc2)cc1 (centres undefined)	U251 CNS	36.2 µM
Cn1c(Nc2ccc(C(F)(F)F)cc2)nc2cc(Oc3ccnc(-c4ncc(C(F)(F)F)[nH]4)c3)ccc21	U251 CNS	12.9 µM
O=C(Nc1ccc([N+](=O)[O-])cc1[N+](=O)[O-])C(=O)C(C(=O)c1ccc2ccccc2c1)C1OC(=O)c2ccccc21 (centres undefined)	U251 CNS	16.9 µM
CN1C(=O)C2CCCC(=O)N2c2cccnc21 (centres undefined)	U251 CNS	> 100 µM
COc1ccc(-c2nc3ncccn3c2-c2ccc(SC)cc2)cc1	U251 CNS	29 µM
COC(=O)NC(C(F)(F)F)(C(F)(F)F)P1(=O)OCCCO1	U251 CNS	29.8 µM
NCC(=O)Nc1ccc(S(=O)(=O)O)c2cc(S(=O)(=O)O)cc(S(=O)(=O)O)c12	U251 CNS	> 100 µM
CCc1c(Cl)c(C)cc(O)c1Cl	U251 CNS	29 µM
CCOC(=O)c1sc2c(c1OC(=O)c1ccc(OC)cc1)c(=O)n(-c1ccccc1)c(=S)n2-c1ccccc1	U251 CNS	> 100 µM
O=C(CC(C(=O)c1ccsc1)c1ccccc1)c1ccccc1 (centres undefined)	U251 CNS	> 100 µM
O=C1c2ccccc2C(=O)c2c1nc1ccccc1c2-c1cncc(-c2c3c(nc4ccccc24)C(=O)c2ccccc2C3=O)c1	U251 CNS	> 45.8 µM
Cc1cccc2c1Sc1ccccc1C2NC(=O)CCN(C)C (centres undefined)	U251 CNS	> 100 µM
CC1CN=C(N(C(=O)Nc2ccc(Cl)c(Cl)c2)c2ccccc2)S1 (centres undefined)	U251 CNS	> 100 µM
CN(C)CCCn1cnc2cc(Cl)c(Cl)cc21	U251 CNS	> 100 µM
COc1ccc(-c2nnc(N3CCN(C(=O)CN4CCN(c5ccccc5)CC4)CC3)nc2-c2ccc(OC)cc2)cc1	U251 CNS	> 100 µM
COc1cccc2nc3c(C(=O)NCCN(C)C)cccc3cc12	U251 CNS	5.46 µM
COC1(OC)CCCc2c1no[n+]2[O-]	U251 CNS	> 100 µM
CCOc1nnnc2nc[nH]c12	U251 CNS	> 100 µM
NCCc1cc(O)c(O)cc1O	U251 CNS	28.5 µM
BrCc1cccc(C[P+](c2ccccc2)(c2ccccc2)c2ccccc2)c1	U251 CNS	> 100 µM
O=C(NNc1ccccc1)C(=O)NNc1ccccc1	U251 CNS	> 100 µM
